Assay target: Enoyl-[acyl-carrier-protein] reductase [NADPH] FabI (Staphylococcus aureus)
Sequence (Q6GI75 whole entry): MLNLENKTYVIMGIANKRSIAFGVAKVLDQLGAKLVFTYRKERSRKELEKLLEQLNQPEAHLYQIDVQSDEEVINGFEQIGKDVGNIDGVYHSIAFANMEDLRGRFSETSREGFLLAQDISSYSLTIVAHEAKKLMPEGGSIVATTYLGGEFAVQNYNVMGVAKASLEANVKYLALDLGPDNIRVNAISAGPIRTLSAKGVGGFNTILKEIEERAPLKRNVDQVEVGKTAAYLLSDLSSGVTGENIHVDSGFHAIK
Assay details: Evaluated for inhibition of enoyl acyl carrier protein reductase (FabI) in Staphylococcus aureus.
pIC50: −log10 of the molar value.
Lab note: compare pIC50 against 5. Equal or greater, write Satisfied. Smaller, write Not satisfied.

Cc1ccc(Cn2cnc(-c3ccsc3)c2)cc1: Satisfied
COc1ccc(-c2cn(Cc3ccc(C)cc3)cn2)cc1: Satisfied

Request: Quick check: does COc1ccc(-c2cn(Cc3ccc(C(F)(F)F)cc3)cn2)cc1 have pIC50 greater than or equal to 5?
Response: Satisfied

Request: Quick check: does c1ccc(C[C@H]2COC(c3ccsc3)=N2)cc1 have pIC50 greater than or equal to 5?
Response: Not satisfied

Request: Quick check: does Cc1ccc(Cc2noc(-c3ccsc3)n2)cc1 have pIC50 greater than or equal to 5?
Response: Not satisfied

* * *

pIC50 by entry:
Assay target: Enoyl-[acyl-carrier-protein] reductase [NADPH] FabI (Staphylococcus aureus)
Assay details: Evaluated for inhibition of enoyl acyl carrier protein reductase (FabI) in Staphylococcus aureus.
Recall that pIC50 is obtained by taking minus log10 of the concentration measured in molar.

In the examples that follow, each entry is paired with its recorded pIC50.
COc1ccc(-c2c[nH]c(Cc3ccc(C)cc3)n2)cc1: 4.18
Cc1cccc(Cn2cnc(-c3ccsc3)c2)c1: 5.37
Cc1ccc(Cc2nc(-c3ccsc3)no2)cc1: 4.29

Now look at this one.
Request: Note down pIC50 recorded for COc1ccc(-c2cn(Cc3ccccc3)cn2)cc1
Response: 5.95

* * *

pIC50 by entry:
Assay target: Enoyl-[acyl-carrier-protein] reductase [NADPH] FabI (Staphylococcus aureus)
Assay details: Evaluated for inhibition of enoyl acyl carrier protein reductase (FabI) in Staphylococcus aureus.
pIC50: −log10 of the molar value.

In the examples that follow, each entry is paired with its recorded pIC50.
c1ccc(C[C@@H]2COC(c3ccsc3)=N2)cc1: < 4.00
FC(F)(F)c1ccc(-c2cn(Cc3ccccc3)cn2)cc1: < 4.00

Now look at this one.
Request: Specify the recorded pIC50 for Cn1cnc(-c2ccsc2)c1 , system: Enoyl-[acyl-carrier-protein] reductase [NADPH] FabI (Staphylococcus aureus).
Response: < 4.00
